B1: human ATRX DAXX-binding motif (DBM) peptide, wild type [human] / human DAXX four-helix bundle domain (4HB, residues 50–144) [human] (parent complex)
chain 1: NDPENRIAKKMLLEEIKANLSSDE
chain 2: SSSSGGKKCYKLENEKLFEEFLELCKMQTADHPEVVPFLYNRQQRAHSLFLASAEFCNILSRVLSRARSRPAKLYVYINELCTVLKAHSAKKKLN

Variants of: B1
Assay: ITC

- Variant description: "chain 1 I16A"
  Kd, µM: 12.9
